molecular target: bdSUMO Mut8-MBP fusion protein
readout-kind: cleavage of the SUMO fusion protein

| protein | readout-kind | test-result |
| --- | --- | --- |
| bdSENP1 from B. distachyon (protein) PFVPLTDEDEDNVRHALGGRKRSETLSVHEASNIVITREILQCLNDKEWLNDEVINLYLELLKERELREPNKFLKCHFFNTFFYKKLINGGYDYKSVRRWTTKRKLGYNLIDCDKIFVPIHKDVHWCLAVINIKEKKFQYLDSLGYMDMKALRILAKYLVDEVKDKSGKQIDVHAWKQEGVQNLPLQENGWDCGMFMLKYIDFYSRDMELVFGQKHMSYFRRRTAKEILDLKAG | cleavage of the SUMO fusion protein | < 25 % cleavage |
| bdSENP1^MutK (protein) PFVPLTDEDEDNVRHALGGRKVSETLSVHEASQIVITREILQCLNDKEWLNDEVINLYLELLKERELREPNKFLKCHFFNTFFYKKLINGGYDYKSVRVWTTGRKLGYNLIDCDKIFVPIHKDVHWCLAVINIKEKKFQYLDSLGYMDMKALRILAKYLVDEVKDKSGKQIDVHAWKQEGVQNLPLQENGWDCGMFMLKYIDFYSRDMELVFGQKHMSYFRRRTAKEILDLKAG | cleavage of the SUMO fusion protein | < 75 % cleavage |
| bdSENP1^Muti (protein) PFVPLTDEDEDNVRHALGGRKKSETLSVHEASHIVITREILQCLNDKEWLNDEVINLYLELLKERELREPNKFLKCHFFNTFFYKKLINGGYDYKSVREWTTRRKLGYNLIDCDKIFVPIHKDVHWCLAVINIKEKKFQYLDSLGYMDMKALRILAKYLVDEVKDKSGKQIDVHAWKQEGVQNLPLQENGWDCGMFMLKYIDFYSRDMELVFGQKHMSYFRRRTAKEILDLKAG | cleavage of the SUMO fusion protein | < 25 % cleavage |
| bdSENP1^MutH (protein) PFVPLTDEDEDNVRHALGGRKPSETLSVHEASAIVITREILQCLNDKEWLNDEVINLYLELLKERELREPNKFLKCHFFNTFFYKKLINGYDYKSVREWTTMRKLGYNLIDCDKIFVPIHKDVHWCLAVINIKEKKFQYLDSLGYMDMKALRILAKYLVDEVKDKSGKQIDVHAWKQEGVQNLPLQENGWDCGMFMLKYIDFYSRDMELVFGQKHMSYFRRRTAKEILDLKAG | cleavage of the SUMO fusion protein | < 75 % cleavage |
| hsSENP2 (protein) EFPEITEEMEKEIKNVFRNGNQDEVLSEAFRLTITRKDIQTLNHLNWLNDEIINFYMNMLMERSKEKGLPSVHAFNTFFFTKLKTAGYQAVKRWTKKVDVFSVDILLVPIHLGVHWCLAVVDFRKKNITYYDSMGGINNEACRILLQYLKQESIDKKRKEFDTNGWQLFSKKSQEIPQQMNGSDCGMFACKYADCITKDRPINFTQQHMPYFRKRMVWEILHRKLL | cleavage of the SUMO fusion protein | resistant |
| bdSENP1^MutB protease (protein) PFVPLTDEDEDNVRHALGGRKRSETLSVHEASSIVITREILQCLNDKEWLNDEVINLYLELLKERELREPNKFLKCHFFNTFFYKKLINGGYDYKSVREWTTKRKLGYNLIDCDKIFVPIHKDVHWCLAVINIKEKKFQYLDSLGYMDMKALRILAKYLVDEVKDKSGKQIDVHAWKQEGVQNLPLQENGWDCGMFMLKYIDFYSRDMELVFGQKHMSYFRRRTAKEILDLKAG | cleavage of the SUMO fusion protein | < 50 % cleavage |
| bdSENP1^MutJ (protein) PFVPLTDEDEDNVRHALGGRKESETLSVHEASSIVITREILQCLNDKEWLNDEVINLYLELLKERELREPNKFLKCHFFNTFFYKKLINGGYDYKSVRSWTTTRKLGYNLIDCDKIFVPIHKDVHWCLAVINIKEKKFQYLDSLGYMDMKALRILAKYLVDEVKDKSGKQIDVHAWKQEGVQNLPLQENGWDCGMFMLKYIDFYSRDMELVFGQKHMSYFRRRTAKEILDLKAG | cleavage of the SUMO fusion protein | < 50 % cleavage |
| Ulp1 from S. cerevisiae (protein) LVPELNEKDDDQVQKALASRENTQLMNRDNIEITVRDFKTLAPRRWLNDTIIEFFMKYIEKSTPNTVAFNSFFYTNLSERGYQGVRRWMKRKKTQIDKLDKIFTPINLNQSHWALGIIDLKKKTIGYVDSLSNGPNAMSFAILTDLQKYVMEESKHTIGEDFDLIHLDCPQQPNGYDCGIYVCMNTLYGSADAPLDFDYKDAIRMRRFIAHLILTDALK | cleavage of the SUMO fusion protein | resistant |
| bdSENP1^MutG (protein) PFVPLTDEDEDNVRHALGGRKSSETLSVHEASHIVITREILQCLNDKEWLNDEVINLYLELLKERELREPNKFLKCHFFNTFFYKKLINGGYDYKSVRRWTTVKLGYNLIDCDKIFVPIHKDVHWCLAVINIKEKKFQYLDSLGYMDMKALRILAKYLVDEVKDKSGKQIDVHAWKQEGVQNLPLQENGWDCGMFMLKYIDFYSRDMELVFGQKHMSYFRRRTAKEILDLKAG | cleavage of the SUMO fusion protein | < 25 % cleavage |
| SUMOstar protease (protein) LVPELNEKDDDQVQKALASRENTQLMNRDNIEITVRDFKTLAPRRWLNSGIISFFMKYIEKSTPNTVAFNSFFYTNLSERGYQGVRRWMKRKKTQIDKLDKIFTPINLNQSHWALGIIDLKKKTIGYVDSLSNGPNAMSFAILTDLQKYVMEESKHTIGEDFDLIHLDCPQQPNGYDCGIYVCMNTLYGSADAPLDFDYKDAIRMRRFIAHLILTDALK | cleavage of the SUMO fusion protein | resistant |
